readout: melting point

Input line: May I ask what melting point has been recorded for CCOc1ccc2c(c1)n(C1CCCCC1)c(=O)n2S(=O)(=O)c1ccc(C(=O)O)cc1OC ?
Output line: 205 °C

Input line: How about this molecule: COc1cc2c(cc1OC)C(=O)C(Cc1ccncc1)C2 (stereo unspecified)
Output line: 192 to 193 °C

---

# reported melting point; entries follow

Input line: Which melting point is listed for CCc1c(-c2ccc(OC)cc2)c2c(C(=O)OC)c(C(=O)OC)c3cc(OC)cc1n32 ?
Output line: 153 to 155 °C

Input line: Now consider C1=C(c2cc(-c3ccccc3)no2)CCN(Cc2c[nH]c3ncccc23)C1 and answer again.
Output line: 224 to 226 °C

Input line: Then this compound: Cc1cc(=O)c(OCC(=O)O)cn1C
Output line: 240 to 242 °C

Input line: CCCNC(=O)c1ccc(-c2ccc3nnn(Cc4ccc5ncccc5c4)c3n2)cc1F , same question.
Output line: 157 to 159 °C

Input line: Now the compound CS(=O)(=O)c1ccc(-c2cc3c(cc2C(=O)c2cc(F)cc(F)c2)OCCO3)cc1
Output line: 191 to 193 °C

---

Each record here notes measured melting point.

Input line: What does the data say about its melting point? Entry: OCCn1cnc2c(O)nc3ccccc3c21
Output line: > 300 °C

Input line: Same read-out for COC(=O)C(Cc1cc(C)c(Oc2ccc(O)c(Cc3ccc(OC)nc3)c2)c(C)c1)NC(C)=O (centres undefined) ?
Output line: 186 to 188 °C

Input line: Now give it for CCCCc1nc(Cl)c(CO)n1Cc1ccc(-c2ccccc2-c2nnnn2-c2ccc([N+](=O)[O-])cc2)cc1 too.
Output line: 182 to 186 °C

Input line: Here is the next molecule: CCCc1nn(-c2ccc(C(F)(F)F)cn2)cc1CCCOc1c(CC)cccc1CC(=O)O
Output line: 146 to 147 °C

Input line: Moving on to the next molecule: O=C1CCC(N2Cc3c(OCc4ccc(Cc5nc6ccccc6[nH]5)cc4)cccc3C2=O)C(=O)N1 (centres undefined)
Output line: 203 to 205 °C

Input line: What do we get for O=C1CC(c2cccc(-n3ccnc3)c2)=Nc2cc(OCCO)c(C#Cc3ccc(F)cc3)cc2N1 ?
Output line: 220 to 222 °C

Input line: Could you do the same for Cc1ccc(S(=O)(=O)N2Cc3cncnc3-c3ccc(Cl)cc3C2c2ccccc2Cl)cc1 (centres undefined) , please?
Output line: 200 to 201 °C

Input line: Now try Cc1cc(C)c(Nc2nc(C)ncc2S(=O)(=O)c2ccc(-c3ccccn3)cc2)c(C)c1 .
Output line: 201 to 203 °C

---

readout: melting point

molecule	melting point
COc1cc(N)c(Cl)cc1C(=O)NCC1CCN(CCCS(=O)(=O)Cc2ccccc2)CC1	166 to 168 °C
CC(C)c1csc2[nH]c(=O)c(=O)[nH]c12	> 250 °C

Input line: Tell me the measured melting point of CCCCOC(=Cn1ccnc1)c1ccc(Cl)cc1Cl , please.
Output line: 205 to 207 °C

Input line: Would you kindly repeat that for FC(F)(F)c1c[nH]c(-c2ccc(OCC3CO3)cc2)n1 (stereo not given) ?
Output line: 152 to 154 °C

Input line: Thanks! And CN1C(=O)CC[C@]2(C)c3ccc(-c4cc(C(F)(F)F)cc(C(F)(F)F)c4)cc3CC[C@@H]12 ?
Output line: 110 to 112 °C

Input line: O=C1CC2(c3ccccc3)CCCC2C(=O)N1Cc1ccccc1 (stereo not given) , same question.
Output line: 77 to 79 °C

Input line: Now consider CCOC(=O)COc1ccc2cc(-c3cc4ccccc4s3)ccc2c1Br and answer again.
Output line: 178 to 181 °C

Input line: Next molecule: CCOC(=O)C(Oc1nc(OC)cc(OC)n1)C(C)(C)c1ccccc1 (stereo not given)
Output line: 123 to 124 °C

Input line: Moving on to the next molecule: COCCc1nc2c(N)nc3cc(OCCn4cccc4)ccc3c2n1CC(C)(C)O
Output line: 168 to 169 °C

Input line: Record: COc1cccc(NC(=O)C(N)=O)c1C(N)=O
Output line: 252 to 255 °C
